tested on: U251 CNS; assay: NCI-60 one-dose screen, 48 h (100 = growth as untreated, 0 = no growth, -100 = all killed); conditions: 10 µM unless noted
The panel holds about 83,000 compounds, 20% with a hit somewhere; the sample as a whole holds those more often.
Exercise: for every item that follows, state its recorded growth.
Numbers only, in %.

COMPOUND: CCOc1cccc(/C=N\Nc2nc(=O)cc(C(=O)OC)s2)c1O
growth, %: 57.6
--
COMPOUND: NCCOc1ncccc1/C=C1\c2ccccc2-c2ccc(F)cc21
growth, %: 8.04
--
COMPOUND: O=C1C(Cl)=C(NCc2ccco2)C(=O)c2ccccc21
growth, %: 70.2

Your task in this section: give growth for each listed record.
1. CCOc1cc(Cl)c(C(C)NC(=O)c2cccc(OC)c2)cc1OCC (stereo not given)
2. COc1ccc(Cn2c(Br)c3c(c2-c2cc(OC)c(OC)c(OC)c2)CCc2sc(NC(=O)c4ccc(OC)cc4)nc2-3)cc1

Result:
1. 22.5
2. 98.6

// provenance: PubChem BioAssay (NCI)
